system: HT29 colon; test: NCI tumour cell line growth inhibition, 48 h; in the data active = GI50 below about 0.43 µM; inactive = the rest
// classify into true (1) (active), false (0) (inactive)

Compound: COC(=O)CCC1=C(C)c2cc3[n-]c(cc4nc(cc5[n-]c(cc1n2)c(CCC(=O)OC)c5C)C=C4C)cc3C.[Cd+2]
Class Name: false (0)

Compound: COc1ccc(C(O)c2cc3c(N)c(C(=O)Nc4cccc(Br)c4)sc3nc2C)cc1 (stereo not given)
Class Name: true (1)

Hi, do you know how COc1ccc(/C=C2\N=C3SC=C(N)N3C2=O)cc1 came out in this test?
false (0)

Hi, do you know how O=Nc1c(O)ccc2ccccc12 came out in this test?
false (0)

Hi, do you know how O=C(/C=C/c1ccco1)Nc1ncc(Cc2ccc(F)cc2)s1 came out in this test?
true (1)

* * *

system: HS 578T breast; assay: NCI tumour cell line growth inhibition, 48 h
Quantity Kind: GI50

Compound: CCNCCNc1cc(-c2ccc(F)cc2)c(C#N)c2nc3ccccc3n12
Study Target: HS 578T breast
GI50: 3.15 µM
--
Compound: Fc1ccc(-c2ncn(C3CCNCC3)c2-c2ccnc(Oc3cccc(F)c3)n2)cc1
Study Target: HS 578T breast
GI50: > 12 µM
--
Compound: O=c1[nH]c(-c2ccc(C(F)(F)F)cc2)nc2c1CSCC2
Study Target: HS 578T breast
GI50: 45.8 µM

Quick one: give me GI50 for each item below, same order please.
1. C#Cc1ccc(NC(=O)c2ccc(/C=C/C(=O)c3nccn3C)cc2)cc1
2. O=C(NNS(=O)(=O)c1cc(C(F)(F)F)cc(C(F)(F)F)c1)c1cnn(-c2ccc(Cl)cc2)c1C(F)(F)F
3. CN(Cc1cnc2nc(N)nc(N)c2n1)c1ccc(C(=O)NC(CCC(=O)O)C(=O)O)cc1 (stereo unspecified)

["0.853 µM", "18.4 µM", "> 100 µM"]

* * *

system: CAKI-1 renal; test: NCI tumour cell line growth inhibition, 48 h; in the data active = GI50 below about 0.43 µM; inactive = the rest
// classify into active, inactive

Molecule: C[C@H]1[C@@H](OCC(CO[C@H]2O[C@@H]3O[C@@]4(C)CC[C@H]5[C@H](C)CC[C@@H]([C@H]2C)[C@@]35OO4)=NOCC(=O)O)OC2O[C@@]3(C)CC[C@H]4[C@H](C)CC[C@@H]1[C@@]24OO3 (stereo partly drawn)
Class Name: active
//
Molecule: O=c1[nH]c(-c2ccc(C(F)(F)F)cc2)nc2c1CSCC2
Class Name: inactive
//
Molecule: CN(Cc1cnc2nc(N)nc(N)c2n1)c1ccc(C(=O)NC(CCC(=O)O)C(=O)O)cc1 (stereo not drawn)
Class Name: active

Hi, do you know how N#Cc1nc(-c2ccccc2)oc1S(=O)(=O)N1CCOCC1 came out in this test?
inactive

Hi, do you know how NC(CSC(c1ccccc1)(c1ccccc1)c1ccc2ccccc2c1)C(=O)O (stereo not drawn) came out in this test?
active

Hi, do you know how COc1ccc(-c2ccc(-c3ccc(C(=N)N)cn3)s2)cc1Cl came out in this test?
inactive

Hi, do you know how COc1ccc([C@H]2O[C@@H](CO)C[C@]2(O)c2ccc(OC)cc2)cc1 came out in this test?
inactive

Hi, do you know how Fc1ccc(-c2ncn(C3CCNCC3)c2-c2ccnc(Oc3cccc(F)c3)n2)cc1 came out in this test?
inactive

* * *

system: A549 NSCLC; test: NCI tumour cell line growth inhibition, 48 h
Quantity Kind: TGI (µM)
Answers are plain numbers, in µM.

# count of solved cases: 3
Compound: CSc1c(C#N)c2n(c3ccccc3[n+]2C)c2ncccc12
TGI, µM: 77

Compound: CC(C)(C)CC(C)(C)c1ccc(OCCOCCSC(=N)N)cc1
TGI, µM: 8.77

Compound: COC(=O)C1(Cc2cccc(Cl)c2)CCCCCCN1C(=O)c1ccccc1 (centres undefined)
TGI, µM: 33.6

Input O=c1c([Se]c2coc3ccccc3c2=O)coc2ccccc12 , output reported TGI.
20.9

* * *

system: SR leukemia; assay: NCI tumour cell line growth inhibition, 48 h; in the data active = GI50 below about 0.43 µM; inactive = the rest
// classify into Yes = active, No = inactive

Molecule: CC(=O)/C(C)=N/N/C(N)=N\S(=O)(=O)c1cc(C(=O)Nc2ccccc2)c(Cl)cc1SCc1ccccc1
Class Name: No

Molecule: C[Se]C(=O)CC1=C2C=C(F)C=CC2/C(=C\c2ccc(S(C)=O)cc2)C1C (centres undefined)
Class Name: No

Molecule: O=Nc1c(O)ccc2ccccc12
Class Name: No

Molecule: C[C@H]1[C@@H](OCC(CO[C@H]2O[C@@H]3O[C@@]4(C)CC[C@H]5[C@H](C)CC[C@@H]([C@H]2C)[C@@]35OO4)=NOCC(=O)O)OC2O[C@@]3(C)CC[C@H]4[C@H](C)CC[C@@H]1[C@@]24OO3 (some centres undefined)
Class Name: Yes

Molecule: COc1cc(C2C(C#N)=C(N)OC3=C2C(=O)c2ccccc2C3=O)cc(OC)c1OC (centres undefined)
Class Name: Yes

Molecule: CCSC1=CC(=O)c2ccccc2C1=O
Class Name: No

Molecule: CC(=O)N1CC(F)(F)c2c(Sc3ncc(N4CCC5(CC4)COC[C@H]5N)nc3N)cccc21
Class Name: No

Molecule: C=C(C)C1/C=C(/C(C)C)CC[C@]2(C)O[C@@H]2CC[C@H](C)CC1=O (some centres undefined)
Class Name: No

Consider the record given below.
Hi, do you know how FC(F)(F)c1ccc(-c2cnc(Br)nc2NC2CCCCCC2)cc1 came out in this test?
No

* * *

Task for the reader: assign each of the following molecules its reported TGI.
system: HCT-15 colon; experiment: NCI tumour cell line growth inhibition, 48 h

Quick one: give me TGI for each item below, same order please.
1. CCSC1=CC(=O)c2ccccc2C1=O
2. CC(C)C(N)(C(=O)O)c1ccccc1 (configuration not stated)
3. CC(=O)OC1CCC2(C)C(=CC(C3C=C4CC(OC(C)=O)CCC4(C)C4=C3C3CC5OC6(CCC(C)CO6)C(C)C5C3(C)CC4)C3=C2CCC2(C)C3CC3OC4(CCC(C)CO4)C(C)C32)C1 (configuration not stated)
4. Cc1ccc(S(=O)(=O)N/N=C2\C=C[C@]3(CC2)C(=O)N(C)c2ccccc23)cc1
5. FC(F)(F)c1ccc(-c2cnc(Br)nc2NC2CCCCCC2)cc1
6. CCC(=O)NCCc1c[nH]c2ccc(OC)cc12
7. O/N=C\c1cc(O)c(O)c(/C=N/O)c1

1. 31.4 µM
2. > 100 µM
3. 28.4 µM
4. > 100 µM
5. > 100 µM
6. > 100 µM
7. > 100 µM

Quick one: give me TGI for each item below, same order please.
1. CO[C@H]1O[C@@H]2CO[C@@H](c3ccccc3)O[C@H]2C[C@]12CCC/C=C\CO2
2. CCOC(=O)C(C[Si](C)(C)C)P(=O)(OCC)OCC (configuration not stated)
3. COC1=C(OC)CCC(/C(C#N)=C/c2ccc(OC)c(OC)c2)=C1
4. O=C(/C=C/c1cccc(Cl)c1)c1ccc(Cl)cc1Cl

1. 27.5 µM
2. > 100 µM
3. > 100 µM
4. > 50 µM

* * *

system: CAKI-1 renal; experiment: NCI tumour cell line growth inhibition, 48 h
Quantity Kind: TGI

Quick one: give me TGI for each item below, same order please.
1. c1ccc(-c2cc(-c3cc(-c4ccccc4)n(-c4ccccc4)n3)nn2-c2ccccc2)cc1
2. CCOC(=O)c1nc2cc(C(F)(F)F)ccc2nc1Nc1ccc(Cl)c(Cl)c1
3. Cc1ccc(/C=N/Nc2ncccn2)s1

["> 100 µM", "> 100 µM", "> 100 µM"]

Quick one: give me TGI for each item below, same order please.
1. C=CCn1c(=O)c(C)cn(/C(=C/C(=O)OCC)C(=O)OCC)c1=O
2. Cn1cnc([N+](=O)[O-])c1Sc1ncnc2c1ncn2C1OC(CO)C(O)C1O (stereo not given)
3. COc1ccc(O)c2c1C(=O)CCCC2=O

1: 3.65 µM; 2: > 100 µM; 3: > 100 µM

Quick one: give me TGI for each item below, same order please.
1. CSCCCCCCCCCCOc1ccc(C=C2C(=C(C#N)C#N)c3ccccc3C2=C(C#N)C#N)cc1
2. CCOC(=O)CCC(NC(=O)OCc1ccccc1)C(=O)NC(CCC(=O)OCC)C(=O)NC(CCC(=O)OCC)C(=O)NC(CCC(=O)OCC)C(=O)NC(CCC(=O)OCC)C(=O)OCC (stereo not given)
3. Cc1n[nH]c(=O)n1N=C(c1ccccc1)c1ccccc1
4. COc1ccc(/C=C2\N=C3SC=C(N)N3C2=O)cc1

["32.3 µM", "> 100 µM", "> 100 µM", "7.01 µM"]

* * *

system: COLO 205 colon; test: NCI tumour cell line growth inhibition, 48 h
Task for the reader: assign each of the following molecules its reported TGI.
Answers are plain numbers, in µM.

# count of solved cases: 6
Molecule: C[C@H]1[C@@H](OCC(CO[C@H]2O[C@@H]3O[C@@]4(C)CC[C@H]5[C@H](C)CC[C@@H]([C@H]2C)[C@@]35OO4)=NOCC(=O)O)OC2O[C@@]3(C)CC[C@H]4[C@H](C)CC[C@@H]1[C@@]24OO3 (stereo partly specified)
TGI / µM: 0.422
--
Molecule: CC[C@H](C)[C@H](NC(=O)C12C3C4C1C1C2C3C41NC(C)=O)C(=O)N(C)[C@H](C[C@@H](OC(C)=O)c1nc(C(=O)N[C@@H](Cc2ccccc2)C[C@H](C)C(=O)OC)cs1)C(C)C (stereo partly specified)
TGI / µM: 1.71
--
Molecule: COC(=O)CCC1=C(C)c2cc3[n-]c(cc4nc(cc5[n-]c(cc1n2)c(CCC(=O)OC)c5C)C=C4C)cc3C.[Cd+2]
TGI / µM: 6.9
--
Molecule: CC/C=C\CCC/C=C1/C(=O)C=C[C@@H]1C/C=C\CCCC(=O)O
TGI / µM: 18.4
--
Molecule: CC(=O)N1CC(F)(F)c2c(Sc3ncc(N4CCC5(CC4)COC[C@H]5N)nc3N)cccc21
TGI / µM: 36.7
--
Molecule: COc1ccc(C(Nc2ncccn2)c2cc3c(cc2O)OCO3)cc1 (stereo unspecified)
TGI / µM: 70.6

Quick one: give me TGI for each item below, same order please.
1. C=CCn1c(=O)c(C)cn(/C(=C/C(=O)OCC)C(=O)OCC)c1=O
2. Fc1ccc(C(OCCN2CCC3CCC(C2)N3Cc2cc3ccccc3[nH]2)c2ccc(F)cc2)cc1 (stereo unspecified)

1. 15.2
2. 2.14
